All values here come from ChEMBL document CHEMBL1136572.

- TEST_TARGET: Muscarinic acetylcholine receptor M2 (Homo sapiens, UniProt P08172)
- Sequence (P08172 whole entry): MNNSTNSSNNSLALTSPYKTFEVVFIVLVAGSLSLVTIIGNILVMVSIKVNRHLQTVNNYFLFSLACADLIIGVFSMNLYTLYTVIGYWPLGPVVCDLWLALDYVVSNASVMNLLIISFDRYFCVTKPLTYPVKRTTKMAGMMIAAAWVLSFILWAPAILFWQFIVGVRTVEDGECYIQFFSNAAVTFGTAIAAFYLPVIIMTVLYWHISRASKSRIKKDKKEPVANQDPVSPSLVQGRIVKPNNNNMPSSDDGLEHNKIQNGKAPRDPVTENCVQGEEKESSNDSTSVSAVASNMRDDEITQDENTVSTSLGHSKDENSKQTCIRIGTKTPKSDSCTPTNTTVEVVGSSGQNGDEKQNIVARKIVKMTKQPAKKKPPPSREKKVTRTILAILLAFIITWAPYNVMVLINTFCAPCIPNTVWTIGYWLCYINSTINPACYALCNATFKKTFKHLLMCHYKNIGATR
- PROTOCOL_TEXT: Binding affinity towards muscarinic receptor M2

# SMILES_TEXT, TEST_TARGET, MEASUREMENT_UNIT, Ki
records = [
    ("Cc1nc(-c2ccccc2)nc(C)c1C(=O)N1CCC(C)(N2CCN([C@@H](C)c3ccc(C(F)(F)F)cc3)[C@@H](C)C2)CC1", "Muscarinic acetylcholine receptor M2 (Homo sapiens, UniProt P08172)", "nM", 1230),
    ("Cc1cncc(C)c1C(=O)N1CCC(C)(N2CCN([C@@H](C)c3ccc(C(F)(F)F)cc3)[C@@H](C)C2)CC1", "Muscarinic acetylcholine receptor M2 (Homo sapiens, UniProt P08172)", "nM", 1680),
    ("Cc1nc(C)c(C(=O)N2CCC(C)(N3CCN([C@@H](C)c4ccc(C(F)(F)F)cc4)[C@@H](C)C3)CC2)c(C)n1", "Muscarinic acetylcholine receptor M2 (Homo sapiens, UniProt P08172)", "nM", 985),
    ("Cc1c[n+]([O-])cc(C)c1C(=O)N1CCC(C)(N2CCN([C@@H](C)c3ccc(C(F)(F)F)cc3)[C@@H](C)C2)CC1", "Muscarinic acetylcholine receptor M2 (Homo sapiens, UniProt P08172)", "nM", 255),
    ("C[C@H]1CN(C2(C)CCN(C(=O)c3c(Cl)c[n+]([O-])cc3Cl)CC2)CCN1[C@@H](C)c1ccc(C(F)(F)F)cc1", "Muscarinic acetylcholine receptor M2 (Homo sapiens, UniProt P08172)", "nM", 348),
    ("C[C@H]1CN(C2(C)CCN(C(=O)c3c(Cl)cncc3Cl)CC2)CCN1[C@@H](C)c1ccc(C(F)(F)F)cc1", "Muscarinic acetylcholine receptor M2 (Homo sapiens, UniProt P08172)", "nM", 2030),
]

====

- PROTOCOL_TEXT: Compound was tested for inhibition of HIV isolate JV 1083 in peripheral blood mononuclear cells (PBMC)
- Format: functional
RECORDED_ENDPOINT: IC50 (nM)

# SMILES_TEXT, MEASUREMENT_UNIT, QUANTITATIVE_READOUT
records = [
    ("Cc1ncnc(C)c1C(=O)N1CCC(C)(N2CCN([C@@H](C)c3ccc(C(F)(F)F)cc3)[C@@H](C)C2)CC1", "nM", 166),
]

====

- PROTOCOL_TEXT: Compound was tested for inhibition of HIV isolate US-1 in peripheral blood mononuclear cells (PBMC)
- Assay type: functional
RECORDED_ENDPOINT: IC50 (nM)

# SMILES_TEXT, RECORDED_ENDPOINT, QUANTITATIVE_READOUT
records = [
    ("Cc1ncnc(C)c1C(=O)N1CCC(C)(N2CCN([C@@H](C)c3ccc(C(F)(F)F)cc3)[C@@H](C)C2)CC1", "IC50", 0.7),
]

====

- PROTOCOL_TEXT: Oral bioavailability evaluated in rat
- Format: ADME, organism-based
- STUDY_CONDITIONS: in vivo

# SMILES_TEXT, bioavailability (%)
data = [
    ("Cc1ncnc(C)c1C(=O)N1CCC(C)(N2CCN([C@@H](C)c3ccc(C(F)(F)F)cc3)[C@@H](C)C2)CC1", 97),
]

====

- PROTOCOL_TEXT: Compound was tested for inhibition of HIV isolate YU-2 (hz) in peripheral blood mononuclear cells (PBMC)
- Type: functional

# SMILES_TEXT, IC50 [nM]
measured = [
    ("Cc1ncnc(C)c1C(=O)N1CCC(C)(N2CCN([C@@H](C)c3ccc(C(F)(F)F)cc3)[C@@H](C)C2)CC1", 1.3),
]

====

- PROTOCOL_TEXT: Ratio of AUCbrain to AUCplasma
- Format: ADME, organism-based
- STUDY_CONDITIONS: rat, brain and plasma
RECORDED_ENDPOINT: Kp

# SMILES_TEXT, RESULT
records = [
    ("Cc1ncnc(C)c1C(=O)N1CCC(C)(N2CCN([C@@H](C)c3ccc(C(F)(F)F)cc3)[C@@H](C)C2)CC1", 1.7),
]

====

Each record here notes measured log10 Ki.
- TEST_TARGET: C-C chemokine receptor type 5 (Homo sapiens, UniProt P51681)
- Sequence (P51681 whole entry): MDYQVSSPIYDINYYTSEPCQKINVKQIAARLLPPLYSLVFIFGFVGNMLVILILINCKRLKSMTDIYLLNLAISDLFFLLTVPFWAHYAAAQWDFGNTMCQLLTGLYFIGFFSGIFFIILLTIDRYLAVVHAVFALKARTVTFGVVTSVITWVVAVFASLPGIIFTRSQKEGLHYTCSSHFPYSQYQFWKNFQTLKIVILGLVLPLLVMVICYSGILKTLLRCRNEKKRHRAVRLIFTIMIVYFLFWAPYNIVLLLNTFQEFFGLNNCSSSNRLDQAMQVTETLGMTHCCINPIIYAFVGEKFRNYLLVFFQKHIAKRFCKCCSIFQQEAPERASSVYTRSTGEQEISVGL
RECORDED_ENDPOINT: log10 Ki (log10 of the value in nM)

# SMILES_TEXT, log10 Ki
measured = [
    ("Cc1ncnc(C)c1C(=O)N1CCC(C)(N2CCN([C@@H](C)c3ccc(OC(F)(F)F)cc3)[C@@H](C)C2)CC1", 1.04),
    ("C[C@H]1CN(C2(C)CCN(C(=O)c3c(Cl)cncc3Cl)CC2)CCN1[C@@H](C)c1ccc(C(F)(F)F)cc1", -0.15),
    ("Cc1ncnc(C)c1C(=O)N1CCC(C)(N2CCN([C@@H](C)c3ccc(C#N)cc3)[C@@H](C)C2)CC1", 1.30),
    ("C[C@H]1CN(C2(C)CCN(C(=O)c3c(Cl)c[n+]([O-])cc3Cl)CC2)CCN1[C@@H](C)c1ccc(C(F)(F)F)cc1", 0.43),
    ("Cc1nc(-c2ccccc2)nc(C)c1C(=O)N1CCC(C)(N2CCN([C@@H](C)c3ccc(C(F)(F)F)cc3)[C@@H](C)C2)CC1", 1.08),
    ("Cc1ccnc(C)c1C(=O)N1CCC(C)(N2CCN([C@@H](C)c3ccc(C(F)(F)F)cc3)[C@@H](C)C2)CC1", 0.30),
    ("Cc1nc(N)nc(C)c1C(=O)N1CCC(C)(N2CCN([C@@H](C)c3ccc(C(F)(F)F)cc3)[C@@H](C)C2)CC1", 1.58),
    ("Cc1c[n+]([O-])cc(C)c1C(=O)N1CCC(C)(N2CCN([C@@H](C)c3ccc(C(F)(F)F)cc3)[C@@H](C)C2)CC1", 1.26),
    ("Cc1nc(C(F)(F)F)nc(C)c1C(=O)N1CCC(C)(N2CCN([C@@H](C)c3ccc(C(F)(F)F)cc3)[C@@H](C)C2)CC1", 1.00),
    ("Cc1nc(C)c(C(=O)N2CCC(C)(N3CCN([C@@H](C)c4ccc(C(F)(F)F)cc4)[C@@H](C)C3)CC2)c(C)n1", 1.00),
]

====

Each record here notes measured log10(Ki).
- TEST_TARGET: Muscarinic acetylcholine receptor M2 (Homo sapiens)
- Sequence (P08172 whole entry): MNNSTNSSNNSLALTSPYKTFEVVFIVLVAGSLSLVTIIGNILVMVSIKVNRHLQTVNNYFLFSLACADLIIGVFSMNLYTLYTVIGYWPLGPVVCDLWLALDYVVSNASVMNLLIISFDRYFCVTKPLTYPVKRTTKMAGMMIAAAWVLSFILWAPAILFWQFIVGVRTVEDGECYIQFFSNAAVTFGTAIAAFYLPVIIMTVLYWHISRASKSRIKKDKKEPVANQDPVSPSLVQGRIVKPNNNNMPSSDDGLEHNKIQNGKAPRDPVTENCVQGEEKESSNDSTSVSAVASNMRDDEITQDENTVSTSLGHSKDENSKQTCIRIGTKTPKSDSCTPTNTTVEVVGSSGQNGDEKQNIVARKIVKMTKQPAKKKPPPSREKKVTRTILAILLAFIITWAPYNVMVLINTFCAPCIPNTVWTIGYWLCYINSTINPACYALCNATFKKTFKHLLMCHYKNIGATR
- PROTOCOL_TEXT: Binding affinity towards muscarinic receptor M2
RECORDED_ENDPOINT: log10(Ki) (log10 of the value in nM)

# SMILES_TEXT, log10(Ki)
rows = [
    ("Cc1nc(N)nc(C)c1C(=O)N1CCC(C)(N2CCN([C@@H](C)c3ccc(C(F)(F)F)cc3)[C@@H](C)C2)CC1", 3.04),
    ("Cc1ncnc(C)c1C(=O)N1CCC(C)(N2CCN([C@@H](C)c3ccc(C#N)cc3)[C@@H](C)C2)CC1", 2.21),
    ("COc1nc(C)c(C(=O)N2CCC(C)(N3CCN([C@@H](C)c4ccc(C(F)(F)F)cc4)[C@@H](C)C3)CC2)c(C)n1", 2.31),
    ("Cc1ncnc(C)c1C(=O)N1CCC(C)(N2CCN([C@@H](C)c3ccc(OC(F)(F)F)cc3)[C@@H](C)C2)CC1", 1.83),
    ("Cc1ncnc(C)c1C(=O)N1CCC(C)(N2CCN([C@@H](C)c3ccc(C(F)(F)F)cc3)[C@@H](C)C2)CC1", 2.66),
    ("Cc1nc(C(F)(F)F)nc(C)c1C(=O)N1CCC(C)(N2CCN([C@@H](C)c3ccc(C(F)(F)F)cc3)[C@@H](C)C2)CC1", 2.79),
    ("Cc1ncnc(C)c1C(=O)N1CCC(C)(N2CCN([C@@H](C)c3ccc(I)cc3)[C@@H](C)C2)CC1", 2.23),
]
